Target: HLA-A*02:01 molecule (Homo sapiens, UniProt P04439, D140Y/D185E/D98H/E176V/E277Q/G131W/G231S/I119V/I121R/I166T/I218V/L300P/L318F/N151K/N90K/P208A/P217A/Q86G/Q94H/R138H/R169H/T345S)
Assay: Binding experiment of peptide to HLA-A*02:01 molecule (T2 cells, flow cytometry)
Conditions: T2 cells, 37° C. 4 hours; negative values as printed (apparently log Kd)
Ends that are not written are not given here.
MEASURED_QUANTITY: Binding Experiment Data To A*02:01
Output: the number by itself.

Use these answered entries as a reference point.
// query Binding Experiment Data To A*02:01 value for entry YGAAVQAAI [SEQ ID NO: 7]
−4.904

Now try VLVGGSTRI [SEQ ID NO: 5] .
−4.86

Please give the result for YAFNMKSAV [SEQ ID NO: 13] too.
−5.091

More entries:
Item KLLQDFFNG [SEQ ID NO: 4] has what recorded Binding Experiment Data To A*02:01?
−4.959
